Target: Serine/threonine-protein kinase MRCK beta (Homo sapiens) (UniProt Q9Y5S2);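 further: values are mean percent inhibition of MRCKB, screened as part of the GSK PKIS kinase inhibitor set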
Conditions: at 0.1 µM
PARAMETER: inhibition (%)
Response body: numeric value in %, unit text excluded.

Query: What does the record list as inhibition for NC(=O)c1sc(-n2cnc3cc(C(F)(F)F)ccc32)cc1OCc1ccccc1Br ?
Reply: 0.07

Query: For CCn1c(-c2nonc2N)nc2c(C#CC(C)(C)O)ncc(OCC3CCNCC3)c21 then?
Reply: 2.36

Query: For CCn1c(-c2nonc2N)nc2c(C#CC(C)(C)O)ncc(OC[C@@H]3CCCN3)c21 then?
Reply: 2.11

Query: For COc1cc(C=NNc2ncnc3c2cnn3Cc2ccccc2)ccc1O then?
Reply: 1.9

---

Target: Mast/stem cell growth factor receptor Kit (Homo sapiens) (UniProt P10721);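 further: values are mean inhibition of KIT, from the GSK PKIS dataset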
Sequence (P10721 whole entry): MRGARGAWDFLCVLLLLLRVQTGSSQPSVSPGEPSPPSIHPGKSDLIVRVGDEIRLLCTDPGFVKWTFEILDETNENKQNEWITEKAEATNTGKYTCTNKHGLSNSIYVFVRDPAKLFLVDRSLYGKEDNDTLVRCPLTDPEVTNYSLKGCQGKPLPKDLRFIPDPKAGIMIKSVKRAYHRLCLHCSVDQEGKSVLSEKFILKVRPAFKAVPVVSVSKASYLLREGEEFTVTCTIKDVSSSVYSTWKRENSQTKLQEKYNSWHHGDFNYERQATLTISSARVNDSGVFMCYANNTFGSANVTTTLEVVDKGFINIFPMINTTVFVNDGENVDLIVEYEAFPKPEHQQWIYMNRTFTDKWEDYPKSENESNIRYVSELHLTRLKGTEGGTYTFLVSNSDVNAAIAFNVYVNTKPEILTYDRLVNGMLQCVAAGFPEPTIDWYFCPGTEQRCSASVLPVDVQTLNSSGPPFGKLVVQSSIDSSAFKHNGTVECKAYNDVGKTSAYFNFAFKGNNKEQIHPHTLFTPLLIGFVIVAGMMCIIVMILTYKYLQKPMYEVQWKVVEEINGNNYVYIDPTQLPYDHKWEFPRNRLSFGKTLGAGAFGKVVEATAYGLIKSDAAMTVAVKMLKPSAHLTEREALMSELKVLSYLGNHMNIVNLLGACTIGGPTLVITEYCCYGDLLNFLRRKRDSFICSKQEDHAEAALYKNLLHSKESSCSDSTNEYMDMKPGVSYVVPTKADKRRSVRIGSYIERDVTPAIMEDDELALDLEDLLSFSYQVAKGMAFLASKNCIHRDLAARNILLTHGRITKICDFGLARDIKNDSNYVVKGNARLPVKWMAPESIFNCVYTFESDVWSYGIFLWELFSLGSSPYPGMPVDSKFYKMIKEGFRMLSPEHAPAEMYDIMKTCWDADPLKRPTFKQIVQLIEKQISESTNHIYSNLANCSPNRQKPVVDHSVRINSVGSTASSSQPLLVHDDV
Settings: at 0.1 µM
Each record here notes measured inhibition.
Response body: numeric value in %, unit text excluded.

Solved entries (count: 2):
Cc1cc(-c2ccco2)cc(C)c1/C=C/c1cncc(-c2nn[nH]n2)c1 | -0.86
COc1cccc(COc2cc(-n3cnc4ccccc43)sc2C(N)=O)c1 | 0.16

Query: What does the record list as inhibition for Fc1ccc(-c2ncn(C3CCNCC3)c2-c2ccnc(Oc3ccccc3)n2)cc1 ?
Reply: 0.89

Query: For CCn1c(-c2nonc2N)nc2c(C#CC(C)(C)O)ncc(OC[C@@H]3CCCN3)c21 then?
Reply: -1.26

Query: For Nc1nonc1-c1nc2cnccc2n1C1CCCCC1 then?
Reply: -1.47

Query: For CCn1c(-c2nonc2N)nc2c(C#CC(C)(C)O)ncc(OCC3CCNCC3)c21 then?
Reply: 4.46

---

Target: Casein kinase I isoform alpha (Homo sapiens) (UniProt P48729);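 further: values are the mean percent inhibition of CK1a, averaged over measurements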
Sequence (P48729 2-337 limits assumed): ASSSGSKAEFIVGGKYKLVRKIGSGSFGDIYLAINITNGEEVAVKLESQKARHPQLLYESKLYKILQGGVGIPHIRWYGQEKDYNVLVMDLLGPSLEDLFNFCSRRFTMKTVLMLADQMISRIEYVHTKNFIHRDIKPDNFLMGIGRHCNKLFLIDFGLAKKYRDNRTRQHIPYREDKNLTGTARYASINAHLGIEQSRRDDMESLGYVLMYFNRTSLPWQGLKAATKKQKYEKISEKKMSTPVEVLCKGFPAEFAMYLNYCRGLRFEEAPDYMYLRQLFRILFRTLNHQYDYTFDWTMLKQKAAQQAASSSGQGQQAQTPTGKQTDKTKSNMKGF
Details: at 0.1 µM
PARAMETER: inhibition (%)
Response body: numeric value in %, unit text excluded.

Query: What does the record list as inhibition for COc1cccc(COc2cc(-n3cnc4ccccc43)sc2C(N)=O)c1 ?
Reply: -2.17

Query: For Cc1cc(-c2ccco2)cc(C)c1/C=C/c1cncc(-c2nn[nH]n2)c1 then?
Reply: 1.02

Query: For Nc1nonc1-c1nc2cnccc2n1C1CCCCC1 then?
Reply: -1.01

Query: For NS(=O)(=O)c1ccc(-c2ccc3c(NC(=O)C4CC4)n[nH]c3c2)cc1 then?
Reply: 6.65

Query: For COc1cccc(-n2ncc3c(N/N=C/c4ccncc4)ncnc32)c1 then?
Reply: 6.11

Query: For NC(=O)c1sc(-n2cnc3cc(C(F)(F)F)ccc32)cc1OCc1ccccc1Br then?
Reply: 1.1

---

Target: Receptor tyrosine-protein kinase erbB-4 (Homo sapiens);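 further: each value is a mean percent inhibition of ERBB4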
Details: at 1 µM
Each record here notes measured inhibition.
Response body: numeric value in %, unit text excluded.

Query: What does the record list as inhibition for COc1cccc(COc2cc(-n3cnc4ccccc43)sc2C(N)=O)c1 ?
Reply: 13.2

Query: For CCn1c(-c2nonc2N)nc2c(C#CC(C)(C)O)nc(O[C@@H](CN)c3ccccc3)cc21 then?
Reply: 3.97

Query: For NS(=O)(=O)c1ccc(-c2ccc3c(NC(=O)C4CC4)n[nH]c3c2)cc1 then?
Reply: 7.66

Query: For CCn1c(-c2nonc2N)nc2c(C#CC(C)(C)O)ncc(OCC3CCNCC3)c21 then?
Reply: 3.14

Query: For CCn1c(-c2nonc2N)nc2c(C#CCN)ncc(OCCCN)c21 then?
Reply: 2.14

Query: For COc1cccc(-n2ncc3c(N/N=C/c4ccncc4)ncnc32)c1 then?
Reply: 20.9

Query: For Nc1nonc1-c1nc2cnccc2n1C1CCCCC1 then?
Reply: -5.19

Query: For CCn1c(-c2nonc2N)nc2c(C#CC(C)(C)O)ncc(OC[C@@H]3CCCN3)c21 then?
Reply: 7.9

---

Target: Proto-oncogene tyrosine-protein kinase Src (Homo sapiens) (UniProt P12931);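 further: each value is an averaged percent inhibition of SRC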
Sequence (P12931 2-536 limits assumed): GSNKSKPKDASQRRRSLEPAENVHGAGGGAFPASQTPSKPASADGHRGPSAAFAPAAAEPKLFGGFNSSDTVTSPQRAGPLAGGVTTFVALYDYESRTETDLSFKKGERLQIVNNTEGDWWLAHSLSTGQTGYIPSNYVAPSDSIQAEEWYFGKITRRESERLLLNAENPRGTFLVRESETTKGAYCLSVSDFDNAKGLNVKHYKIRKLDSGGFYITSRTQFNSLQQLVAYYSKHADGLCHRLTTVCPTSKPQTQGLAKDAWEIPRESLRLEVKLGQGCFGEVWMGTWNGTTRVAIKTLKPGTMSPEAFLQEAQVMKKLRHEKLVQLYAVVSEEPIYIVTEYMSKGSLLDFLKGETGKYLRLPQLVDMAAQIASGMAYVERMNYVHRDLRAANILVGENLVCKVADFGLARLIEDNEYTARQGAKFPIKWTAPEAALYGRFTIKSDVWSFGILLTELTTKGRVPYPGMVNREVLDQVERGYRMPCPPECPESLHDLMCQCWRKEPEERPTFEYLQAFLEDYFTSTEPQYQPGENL
Conditions: at 1 µM
Each record here notes measured inhibition.
Response body: numeric value in %, unit text excluded.

Solved entries (count: 8):
NS(=O)(=O)c1ccc(N/C=C2\C(=O)Nc3ccc4ncsc4c32)cc1 | 42.9
CCn1c(-c2nonc2N)nc2c(C#CC(C)(C)O)ncc(OC[C@@H]3CCCN3)c21 | -2.58
Fc1ccc(-c2ncn(C3CCNCC3)c2-c2ccnc(Oc3ccccc3)n2)cc1 | 2.45
CCn1c(-c2nonc2N)nc2c(C#CCN)ncc(OCCCN)c21 | -4.29
COc1cccc(-n2ncc3c(N/N=C/c4ccncc4)ncnc32)c1 | 87.3
COc1cccc(COc2cc(-n3cnc4ccccc43)sc2C(N)=O)c1 | -2.52
CCn1c(-c2nonc2N)nc2c(C#CC(C)(C)O)nc(O[C@@H](CN)c3ccccc3)cc21 | 20.9
COc1cc2c(cc1Nc1nc(Nc3ccsc3C(N)=O)c3cc[nH]c3n1)N(C(=O)CN(C)C)CCC2 | 6.64

Query: What does the record list as inhibition for Nc1nonc1-c1nc2cnccc2n1C1CCCCC1 ?
Reply: -1.17

Query: For Cc1cc(-c2ccco2)cc(C)c1/C=C/c1cncc(-c2nn[nH]n2)c1 then?
Reply: 2.91

---

Biological target: Sphingosine kinase 1 (Homo sapiens) (UniProt Q9NYA1);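 further: mean SPHK1 inhibition value reported from the GSK PKIS kinase panel screen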
Sequence (Q9NYA1 whole entry): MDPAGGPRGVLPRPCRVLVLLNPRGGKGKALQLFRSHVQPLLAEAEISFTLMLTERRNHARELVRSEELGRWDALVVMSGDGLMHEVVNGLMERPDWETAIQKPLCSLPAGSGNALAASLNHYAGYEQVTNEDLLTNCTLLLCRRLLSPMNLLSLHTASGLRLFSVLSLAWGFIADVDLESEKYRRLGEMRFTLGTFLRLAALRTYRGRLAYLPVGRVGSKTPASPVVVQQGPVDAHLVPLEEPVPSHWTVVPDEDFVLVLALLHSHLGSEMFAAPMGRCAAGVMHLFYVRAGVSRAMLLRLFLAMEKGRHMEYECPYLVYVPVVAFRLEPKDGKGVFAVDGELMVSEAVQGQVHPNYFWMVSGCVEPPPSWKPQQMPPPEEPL
Details: at 1 µM
Each record here notes measured inhibition.
Response body: numeric value in %, unit text excluded.

Solved entries (count: 2):
COc1cccc(-n2ncc3c(N/N=C/c4ccncc4)ncnc32)c1 | -2.79
CCn1c(-c2nonc2N)nc2c(C#CC(C)(C)O)nc(O[C@@H](CN)c3ccccc3)cc21 | -0.99

Let's switch to this compound now.
Query: What does the record list as inhibition for COc1cc(C=NNc2ncnc3c2cnn3Cc2ccccc2)ccc1O ?
Reply: -3.17

---

Tested on: Tyrosine-protein kinase ABL1 (Homo sapiens), P00519 [H396P]
Details: at 1 µM
PARAMETER: inhibition (%)
Response body: numeric value in %, unit text excluded.

Solved entries (count: 3):
Cc1cc(-c2ccco2)cc(C)c1/C=C/c1cncc(-c2nn[nH]n2)c1 | 4.02
COc1cc2c(cc1Nc1nc(Nc3ccsc3C(N)=O)c3cc[nH]c3n1)N(C(=O)CN(C)C)CCC2 | -0.29
COc1cc(C=NNc2ncnc3c2cnn3Cc2ccccc2)ccc1O | 90

Query: What does the record list as inhibition for CCn1c(-c2nonc2N)nc2c(C#CC(C)(C)O)ncc(OC[C@@H]3CCCN3)c21 ?
Reply: 6.5

Query: For NS(=O)(=O)c1ccc(-c2ccc3c(NC(=O)C4CC4)n[nH]c3c2)cc1 then?
Reply: 17.1

Query: For CCn1c(-c2nonc2N)nc2c(C#CC(C)(C)O)nc(O[C@@H](CN)c3ccccc3)cc21 then?
Reply: -0.29

Query: For COc1cccc(COc2cc(-n3cnc4ccccc43)sc2C(N)=O)c1 then?
Reply: 3.19

---

Each record here notes measured inhibition.
Target: Tyrosine-protein kinase Mer (Homo sapiens) (UniProt Q12866);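 further: reported value is a mean inhibition of MER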
Sequence (Q12866 whole entry): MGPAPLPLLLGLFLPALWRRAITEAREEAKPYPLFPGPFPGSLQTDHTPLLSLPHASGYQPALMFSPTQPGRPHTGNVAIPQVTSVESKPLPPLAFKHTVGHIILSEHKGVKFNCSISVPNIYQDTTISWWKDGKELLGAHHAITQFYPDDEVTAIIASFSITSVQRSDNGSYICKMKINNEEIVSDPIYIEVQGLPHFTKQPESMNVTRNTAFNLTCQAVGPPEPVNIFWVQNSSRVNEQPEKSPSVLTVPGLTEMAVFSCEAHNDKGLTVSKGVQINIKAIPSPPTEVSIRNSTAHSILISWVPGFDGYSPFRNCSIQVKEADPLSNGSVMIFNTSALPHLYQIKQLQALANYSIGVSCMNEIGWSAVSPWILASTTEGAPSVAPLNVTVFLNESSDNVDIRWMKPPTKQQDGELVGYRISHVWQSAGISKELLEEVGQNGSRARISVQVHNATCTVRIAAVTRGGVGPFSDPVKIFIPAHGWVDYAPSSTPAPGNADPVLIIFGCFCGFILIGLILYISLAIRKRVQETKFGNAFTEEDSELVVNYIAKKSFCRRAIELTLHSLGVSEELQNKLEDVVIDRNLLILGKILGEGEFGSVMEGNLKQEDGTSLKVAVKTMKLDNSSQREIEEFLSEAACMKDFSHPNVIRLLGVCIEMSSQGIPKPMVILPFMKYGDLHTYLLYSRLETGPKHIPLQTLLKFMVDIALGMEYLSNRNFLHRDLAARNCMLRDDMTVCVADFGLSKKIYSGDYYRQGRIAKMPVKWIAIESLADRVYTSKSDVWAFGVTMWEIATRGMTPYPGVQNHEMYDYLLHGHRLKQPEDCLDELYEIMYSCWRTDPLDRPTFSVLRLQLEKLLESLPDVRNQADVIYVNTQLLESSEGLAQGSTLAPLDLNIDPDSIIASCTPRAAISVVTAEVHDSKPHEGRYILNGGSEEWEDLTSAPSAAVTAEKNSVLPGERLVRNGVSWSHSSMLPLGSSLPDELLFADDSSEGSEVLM
Settings: at 0.1 µM
Response body: numeric value in %, unit text excluded.

Query: What does the record list as inhibition for NS(=O)(=O)c1ccc(N/C=C2\C(=O)Nc3ccc4ncsc4c32)cc1 ?
Reply: 0.39

Query: For Nc1nonc1-c1nc2cnccc2n1C1CCCCC1 then?
Reply: -0.72

Query: For COc1cc2c(cc1Nc1nc(Nc3ccsc3C(N)=O)c3cc[nH]c3n1)N(C(=O)CN(C)C)CCC2 then?
Reply: 1.81

Query: For COc1cccc(-n2ncc3c(N/N=C/c4ccncc4)ncnc32)c1 then?
Reply: 6.35

Query: For COc1cccc(COc2cc(-n3cnc4ccccc43)sc2C(N)=O)c1 then?
Reply: -2.89

---

Target: Mitogen-activated protein kinase 14 (Homo sapiens) (UniProt Q16539)
Sequence (Q16539 whole entry): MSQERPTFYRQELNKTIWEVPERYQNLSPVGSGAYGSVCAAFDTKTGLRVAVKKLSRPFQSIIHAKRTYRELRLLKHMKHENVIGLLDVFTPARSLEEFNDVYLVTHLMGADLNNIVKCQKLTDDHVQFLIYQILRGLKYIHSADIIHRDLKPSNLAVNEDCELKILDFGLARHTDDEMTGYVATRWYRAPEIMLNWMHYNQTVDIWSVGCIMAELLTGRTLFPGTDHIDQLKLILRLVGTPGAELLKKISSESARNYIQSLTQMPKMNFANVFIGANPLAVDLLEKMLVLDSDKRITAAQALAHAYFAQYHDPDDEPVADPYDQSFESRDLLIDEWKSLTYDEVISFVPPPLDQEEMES
Conditions: at 1 µM
PARAMETER: inhibition (%)
Response body: numeric value in %, unit text excluded.

Solved entries (count: 6):
NS(=O)(=O)c1ccc(N/C=C2\C(=O)Nc3ccc4ncsc4c32)cc1 | 23.4
COc1cccc(COc2cc(-n3cnc4ccccc43)sc2C(N)=O)c1 | 8.88
CCn1c(-c2nonc2N)nc2c(C#CCN)ncc(OCCCN)c21 | -5.03
NS(=O)(=O)c1ccc(-c2ccc3c(NC(=O)C4CC4)n[nH]c3c2)cc1 | 5.94
CCn1c(-c2nonc2N)nc2c(C#CC(C)(C)O)ncc(OCC3CCNCC3)c21 | 5.69
CCn1c(-c2nonc2N)nc2c(C#CC(C)(C)O)ncc(OC[C@@H]3CCCN3)c21 | 0.75

Let's switch to this compound now.
Query: Request - read-out inhibition | tested on Mitogen-activated protein kinase 14 (Homo sapiens) (UniProt Q16539) | compound CCn1c(-c2nonc2N)nc2c(C#CC(C)(C)O)nc(O[C@@H](CN)c3ccccc3)cc21;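 further: values are mean percent inhibition of p38alpha kinase activity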
Reply: 1.33

---

Molecular target: Proto-oncogene tyrosine-protein kinase receptor Ret (Homo sapiens);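 further: reported figure is the mean of RET inhibition measurements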
Details: at 0.1 µM
PARAMETER: inhibition (%)
Response body: numeric value in %, unit text excluded.

Cc1cc(-c2ccco2)cc(C)c1/C=C/c1cncc(-c2nn[nH]n2)c1 | 1.88

Query: What does the record list as inhibition for COc1cc2c(cc1Nc1nc(Nc3ccsc3C(N)=O)c3cc[nH]c3n1)N(C(=O)CN(C)C)CCC2 ?
Reply: 11.9

Query: For NS(=O)(=O)c1ccc(-c2ccc3c(NC(=O)C4CC4)n[nH]c3c2)cc1 then?
Reply: 3

Query: For COc1cccc(-n2ncc3c(N/N=C/c4ccncc4)ncnc32)c1 then?
Reply: 9.73

Query: For NC(=O)c1sc(-n2cnc3cc(C(F)(F)F)ccc32)cc1OCc1ccccc1Br then?
Reply: 5.91
